System: Mus musculus
Experiment: Inhibition of reserpine (5 mg/kg i.p.) induced hypothermia in mice 2 hr after i.p. administration.
Format: functional
Conditions: ip
EXPERIMENTAL_ENDPOINT: ED50

Prompt line: Please report ED50 with Mus musculus for item OC1(c2cccnc2)Cc2ccccc2C2=NCCN21 (centres undefined) .
Response line: 7 mg/kg

Prompt line: Send back Mus musculus ED50 of COc1ccc(C2(O)Cc3ccccc3C3=NCCN32)cc1 (centres undefined) only.
Response line: 8.4 mg/kg

Prompt line: Give ED50 only, for OC1(c2cccc(F)c2)Cc2ccccc2C2=NCCN21 (centres undefined) , using Mus musculus data.
Response line: 0.7 mg/kg

Prompt line: Report value only: ED50, Mus musculus, OC1(c2cccc(C(F)(F)F)c2)Cc2ccccc2C2=NCCN21 (centres undefined)
Response line: 1.9 mg/kg

Prompt line: # return ED50 of OC1(c2cccs2)Cc2ccccc2C2=NCCN21 (centres undefined) (system: Mus musculus)
Response line: 4.5 mg/kg

Prompt line: For Mus musculus, give the measured ED50 of the entry Cc1ccc(C2(O)Cc3ccccc3C3=NCCN32)cc1 (centres undefined)
Response line: > 25.6 mg/kg

Prompt line: State measured ED50 of the molecule OC1(c2ccc(Cl)cc2)c2ccccc2C2=NCCN21 (centres undefined) with Mus musculus.
Response line: 0.05 mg/kg

Prompt line: Recall the reported ED50 of OC1(c2ccc(F)cc2)Cc2ccccc2C2=NCCN21 (centres undefined) when tested on Mus musculus.
Response line: 0.06 mg/kg

Prompt line: Write ED50 of OC1(c2ccc3c(c2)OCO3)Cc2ccccc2C2=NCCN21 (centres undefined) ; system used: Mus musculus
Response line: 0.1 mg/kg

Prompt line: Identify measured ED50 obtained with Mus musculus for OC1(c2ccccc2Cl)Cc2ccccc2C2=NCCN21 (centres undefined) .
Response line: 6.1 mg/kg

Prompt line: Return reported ED50 for target or system Mus musculus, item OC1(c2ccncc2)Cc2ccccc2C2=NCCN21 (centres undefined) .
Response line: 2.3 mg/kg

Prompt line: Please indicate recorded ED50 of OC1(c2ccc(Cl)cc2Cl)Cc2ccccc2C2=NCCN21 (centres undefined) measured with Mus musculus.
Response line: 5.4 mg/kg

Prompt line: Under Mus musculus: report ED50 of OC1(Cc2ccccc2)Cc2ccccc2C2=NCCN21 (centres undefined) .
Response line: 5.9 mg/kg

Prompt line: Give ED50; test system Mus musculus; molecule OC1(c2ccccc2)Cc2ccccc2C2=NCCN21 (centres undefined)
Response line: 5 mg/kg

Prompt line: Please report ED50 with Mus musculus for item CN(C)CCCN1c2ccccc2CCc2ccccc21 .
Response line: 6.3 mg/kg

Prompt line: Report value only: ED50, Mus musculus, OC1(c2ccc(Cl)cc2)Cc2ccccc2C2=NCCN21 (centres undefined)
Response line: 0.025 mg/kg

Prompt line: Consider the molecule OC1(c2ccccc2F)Cc2ccccc2C2=NCCN21 (centres undefined) tested on Mus musculus; state its ED50.
Response line: 5.1 mg/kg

Prompt line: # return ED50 of OC1(c2cccc(Cl)c2)Cc2ccccc2C2=NCCN21 (centres undefined) (system: Mus musculus)
Response line: 2.1 mg/kg

Prompt line: // fetch ED50 for OC1(c2ccc(Cl)c(Cl)c2)Cc2ccccc2C2=NCCN21 (centres undefined) ; system: Mus musculus
Response line: 1.6 mg/kg

====

Tested on: Mus musculus
Assay: Lethal dose by i.p. administration.
Format: functional
Settings: ip
Sorting guide: entries reporting LD50 beneath 70 mg/kg go in the yes (1) pile, the rest go in the no (0) pile.

Prompt line: Strictly below 70 mg/kg in LD50? OC1(c2ccc(Cl)cc2)Cc2ccccc2C2=NCCN21 (configuration not stated)
Response line: no (0)

Prompt line: Hello, is LD50 of the following compound strictly smaller than 70 mg/kg? OC1(c2ccc(Cl)c(Cl)c2)Cc2ccccc2C2=NCCN21 (configuration not stated)
Response line: no (0)

Prompt line: Please determine if OC1(c2cccc(C(F)(F)F)c2)Cc2ccccc2C2=NCCN21 (configuration not stated) is below 70 mg/kg in terms of LD50.
Response line: yes (1)

Prompt line: Quick check: does Cc1ccc(C2(O)Cc3ccccc3C3=NCCN32)cc1 (configuration not stated) have LD50 under 70 mg/kg?
Response line: no (0)

Prompt line: Is it true that LD50 reported for OC1(c2ccc3c(c2)OCO3)Cc2ccccc2C2=NCCN21 (configuration not stated) is less than 70 mg/kg?
Response line: yes (1)

Prompt line: Criterion: LD50 strictly below 70 mg/kg. Is it met by OC1(c2ccccc2)Cc2ccccc2C2=NCCN21 (configuration not stated) ?
Response line: yes (1)

Prompt line: Item OC1(c2ccncc2)Cc2ccccc2C2=NCCN21 (configuration not stated) : LD50 beneath 70 mg/kg, strictly?
Response line: yes (1)

Prompt line: Determine whether this compound shows LD50 lower than 70 mg/kg (ties excluded): COc1ccc(C2(O)Cc3ccccc3C3=NCCN32)cc1 (configuration not stated)
Response line: no (0)

Prompt line: Please state whether LD50 is below 70 mg/kg for OC1(c2cccc(Cl)c2)Cc2ccccc2C2=NCCN21 (configuration not stated)
Response line: yes (1)

Prompt line: Bench note: check whether OC1(c2ccc(F)cc2)Cc2ccccc2C2=NCCN21 (configuration not stated) shows LD50 below 70 mg/kg
Response line: no (0)

Prompt line: Input OC1(Cc2ccccc2)Cc2ccccc2C2=NCCN21 (configuration not stated) ; condition: LD50 strictly below 70 mg/kg. Does it hold?
Response line: yes (1)

Prompt line: Report whether reported LD50 is lower than 70 mg/kg (strictly) for OC1(c2ccc(Cl)cc2Cl)Cc2ccccc2C2=NCCN21 (configuration not stated)
Response line: no (0)

Prompt line: Criterion: LD50 strictly below 70 mg/kg. Is it met by OC1(c2ccccc2F)Cc2ccccc2C2=NCCN21 (configuration not stated) ?
Response line: yes (1)

Prompt line: hey, is LD50 for OC1(c2ccccc2Cl)Cc2ccccc2C2=NCCN21 (configuration not stated) lower than 70 mg/kg or not?
Response line: yes (1)

Prompt line: Consider the compound OC1(c2cccc(F)c2)Cc2ccccc2C2=NCCN21 (configuration not stated) . Is its LD50 strictly less than 70 mg/kg?
Response line: yes (1)

====

Tested on: Mus musculus
Experiment: Minimal dose required to induce in mice straub tail (ip)
Type: functional
Mark MET only for MD values smaller than 20 mg/kg; exact matches and larger values are NOT MET.

Prompt line: MD strictly < 20 mg/kg for this compound? Cc1ccc(C2(O)Cc3ccccc3C3=NCCN32)cc1 (centres undefined)
Response line: NOT MET

Prompt line: State whether 20 mg/kg exceeds MD recorded for OC1(c2ccncc2)Cc2ccccc2C2=NCCN21 (centres undefined) .
Response line: MET

Prompt line: Take the compound OC1(c2ccc(Cl)cc2)Cc2ccccc2C2=NCCN21 (centres undefined) and say whether its MD is less than 20 mg/kg.
Response line: MET

Prompt line: Hello, is MD of the following compound strictly smaller than 20 mg/kg? OC1(c2cccc(F)c2)Cc2ccccc2C2=NCCN21 (centres undefined)
Response line: MET

Prompt line: Hello, I'm reviewing records and need to know if MD of OC1(c2cccs2)Cc2ccccc2C2=NCCN21 (centres undefined) is below 20 mg/kg. Could you check?
Response line: MET

Prompt line: Problem: For the compound OC1(c2ccc(F)cc2)Cc2ccccc2C2=NCCN21 (centres undefined) , is MD under 20 mg/kg?
Response line: MET

Prompt line: For this compound, is MD lower than 20 mg/kg? COc1ccc(C2(O)Cc3ccccc3C3=NCCN32)cc1 (centres undefined)
Response line: MET

Prompt line: is_below(MD, 20 mg/kg) for OC1(c2ccc3c(c2)OCO3)Cc2ccccc2C2=NCCN21 (centres undefined) ?
Response line: MET

Prompt line: Record OC1(c2ccccc2Cl)Cc2ccccc2C2=NCCN21 (centres undefined) : is its MD strictly below 20 mg/kg?
Response line: NOT MET

====

Test system: Mus musculus
Test: Dose required to induce hypersensitivity in mice (ip)
Type: functional
Provide the reported log10 of ED50 of each item.
In our notation, the value equals log10 of ED50 in mg/kg.

Prompt line: Give the measured log10 of ED50 for COc1ccc(C2(O)Cc3ccccc3C3=NCCN32)cc1 (configuration not stated)
Response line: 1.70

Prompt line: State its log10 of ED50 for this compound: OC1(c2ccc(F)cc2)Cc2ccccc2C2=NCCN21 (configuration not stated)
Response line: 1.40

Prompt line: # return recorded log10 of ED50 for input OC1(c2ccc3c(c2)OCO3)Cc2ccccc2C2=NCCN21 (configuration not stated)
Response line: 1.10

Prompt line: Using known records, supply log10 of ED50 for OC1(Cc2ccccc2)Cc2ccccc2C2=NCCN21 (configuration not stated)
Response line: 1.40

Prompt line: Quickly give me recorded log10 of ED50 for Cc1ccc(C2(O)Cc3ccccc3C3=NCCN32)cc1 (configuration not stated)
Response line: 1.57

Prompt line: Please report log10 of ED50 for the following compound: OC1(c2ccc(Cl)c(Cl)c2)Cc2ccccc2C2=NCCN21 (configuration not stated)
Response line: 2.18

Prompt line: Entry OC1(c2cccs2)Cc2ccccc2C2=NCCN21 (configuration not stated) needs its log10 of ED50 filled in; supply it.
Response line: 1.40
